Would you mind telling me the reported pIC50 of each entry?
biological target: bovine pancreatic PLA2 (Bos taurus, UniProt P00593); construct: from tissue; host or cells: bovine pancreas; assay: Phospholipase A2 (PLA2) activity, enzyme assay; type: biochemical; conditions: Table 20; from semilog plot of % inhibition vs concentration; substrate 1-stearoyl-2-[C^14]-arachidonyl-phosphatidylcholine; 37° C., pH 8, 20 min; read-out: IC50
Sequence (P00593 23-145): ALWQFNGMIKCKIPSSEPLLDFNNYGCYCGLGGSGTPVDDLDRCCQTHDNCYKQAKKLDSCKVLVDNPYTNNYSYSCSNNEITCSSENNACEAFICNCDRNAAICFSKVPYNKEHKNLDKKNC
Numbers only, as −log10 of the molar value.

Look over these answered cases.
| compound | number |
| --- | --- |
| O=C(Nc1ccc(-c2ccccc2)cc1)[C@H](Cc1c[nH]c2ccccc12)NS(=O)(=O)c1ccccc1 [Compound 11] | 3.24 |
| O=C(Nc1ccc(-c2ccccc2)cc1)[C@@H]1CCCN1S(=O)(=O)c1cccc2cnccc12 [Compound 38] | 3.89 |
| O=C([C@H](Cc1ccccc1)NS(=O)(=O)c1cccc2c(Cl)cccc12)N1CCNCC1 [Compound 21] | 3.22 |
| CC(C)[C@H](NS(=O)(=O)c1cccc2c(Cl)cccc12)C(=O)N1CCNCC1 [Compound 22] | 3.51 |
| NCCCCCCNC(=O)[C@H](Cc1ccccc1)NS(=O)(=O)c1cccc2cnccc12 [Compound 35] | 3.58 |

Hey, can you go through the list below and give me pIC50 for every item?
1. CC(C)[C@H](NS(=O)(=O)c1cccc2cnccc12)C(=O)Nc1ccc(-c2ccccc2)cc1 [Compound 37]
2. O=S(=O)(Nc1ccc(-c2ccccc2)cc1)c1cccc2c(Cl)cccc12 [Compound 30]
3. O=C(Nc1ccc(-c2ccccc2)cc1)[C@H]1CCCN1S(=O)(=O)c1cccc2cnccc12 [Compound 40]

1. 3.33
2. 3.56
3. 3.36
